test system: Staphylococcus aureus; experiment: microbe, parasite or virus in culture; conditions: isolate d20A1
Description: Antibacterial activity against MBX-1090-resistant Staphylococcus aureus isolate d20A1 after 16 to 20 hrs by broth microdilution method
value type: MIC
Mention the unit after the number when you answer.

Consider the worked cases shown below.
>>> reported("CO[C@H]1/C=C/O[C@@]2(C)Oc3c(C)c(O)c4c(O)c(c(/C=N/N5CCN(C)CC5)c(O)c4c3C2=O)NC(=O)/C(C)=C\\C=C\\[C@H](C)[C@H](O)[C@@H](C)[C@@H](O)[C@@H](C)[C@H](OC(C)=O)[C@@H]1C [RIFAMPIN]")
"0.0122 µg/mL"
>>> reported("C/C(=C\\C(=O)OCCCCCCCCC(=O)O)C[C@@H]1OC[C@H](C[C@@H]2O[C@H]2[C@@H](C)[C@H](C)O)[C@@H](O)[C@H]1O [MUPIROCIN]")
"0.0312 µg/mL"
>>> reported("c1cc2cc(-c3ccc4cc(C5=NCCN5)[nH]c4c3)[nH]c2cc1C1=NCCN1")
"2 µg/mL"
>>> reported("O=C(N[C@H](CO)[C@H](O)c1ccc([N+](=O)[O-])cc1)C(Cl)Cl [CHLORAMPHENICOL]")
"8 µg/mL"

Now, please, on to the next compound.
q: Note MIC for the compound shown: CC[C@H]1OC(=O)[C@H](C)[C@@H](O[C@H]2C[C@@](C)(OC)[C@@H](O)[C@H](C)O2)[C@H](C)[C@@H](O[C@@H]2O[C@H](C)C[C@H](N(C)C)[C@H]2O)[C@](C)(O)C[C@@H](C)C(=O)[C@H](C)[C@@H](O)[C@]1(C)O [ERYTHROMYCIN]
a: 0.5 µg/mL

* * *

tested on: Staphylococcus aureus; assay: microbe, parasite or virus in culture; details: isolate d20A1
Listed below: MIC values for each entry.

>>> reported("CN[C@@H]1[C@H](O)[C@H](NC)[C@H]2O[C@@]3(O)C(=O)C[C@@H](C)O[C@H]3O[C@@H]2[C@H]1O")
"128 µg/mL"
>>> reported("CC1(C)S[C@@H]2[C@H](NC(=O)C(C(=O)O)c3ccccc3)C(=O)N2[C@H]1C(=O)O (some centres not stated)")
"0.0625 µg/mL"
>>> reported("c1cc2cc(-c3ccc4cc(-c5ccc6oc(C7=NCCN7)cc6c5)[nH]c4c3)[nH]c2cc1C1=NCCN1")
"1 µg/mL"

q: Look up MIC of CN(C)[C@@H]1C(O)=C(C(N)=O)C(=O)[C@@]2(O)C(O)=C3C(=O)c4c(O)cccc4[C@@](C)(O)[C@H]3C[C@@H]12 and report it.
a: 0.5 µg/mL

q: Consider the compound CC1(C)S[C@@H]2[C@H](NC(=O)[C@H](N)c3ccccc3)C(=O)N2[C@H]1C(=O)O and give its recorded MIC.
a: 0.0625 µg/mL

q: Item Cc1onc(-c2ccccc2)c1C(=O)N[C@@H]1C(=O)N2[C@@H]1SC(C)(C)[C@@H]2C(=O)O : provide MIC
a: 0.125 µg/mL

q: Tell me measured MIC for c1cc2cc(-c3ccc(-c4cc5ccc(C6=NCCN6)cc5[nH]4)cc3)[nH]c2cc1C1=NCCN1 please.
a: 0.5 µg/mL
